Tested on: HARA
Method: relative viability (nuclei count vs DMSO), 5 days (fraction); higher = more cells survive
Study Conditions: first compound 20 µM
Readout Name: relative viability

Input: So what's the measured relative viability for this one? Cc1csc(=NC2CCCCC2)n1/N=C/c1ccc(O)c(O)c1O [MIM1] + C[C@@H](Oc1cc(-c2cnn(C3CCNCC3)c2)cnc1N)c1c(Cl)ccc(F)c1Cl [Crizotinib] (partner 1 µM)
Output: 0.138

Input: Please look up its relative viability: Cc1csc(=NC2CCCCC2)n1/N=C/c1ccc(O)c(O)c1O [MIM1] + COc1cccc2cc(-c3nc([C@H]4CC[C@H](C(=O)O)CC4)n4ncnc(N)c34)[nH]c12 [OSI-027] (partner 0.5 µM)
Output: 0.0624

Input: If you can, please state the reported relative viability value of Cc1csc(=NC2CCCCC2)n1/N=C/c1ccc(O)c(O)c1O [MIM1] + CCNC(=O)c1noc(-c2cc(C(C)C)c(O)cc2O)c1-c1ccc(CN2CCOCC2)cc1 [Luminespib] (partner 0.01 µM) .
Output: 0.0856

Taken from the supplement of paper PMC10307832.
